Test system: colchicine site on tubulin (porcine brain tubulin)
measurement-description: Colchicine displacement assay, fluorometric detection
Type: binding
measurement-parameters: compound 20 μM, colchicine 2 μM, porcine brain tubulin 2 μM, 2 h; control = colchicine bound to tubulin
observed-property: Colchicine-tubulin binding Percent of control

I'm curious: which Colchicine-tubulin binding Percent of control was measured for CCOc1ccc2[nH]cc(CCNc3nc(C)cc(Nc4cccc5c4ccn5C)n3)c2c1 [Example 8] tested on colchicine site on tubulin (porcine brain tubulin)?
82% of control

I'm curious: which Colchicine-tubulin binding Percent of control was measured for COc1ccc2[nH]cc(CCNc3nccc(Nc4cccc5c4ncn5C)n3)c2c1 [Example 2] tested on colchicine site on tubulin (porcine brain tubulin)?
81% of control

I'm curious: which Colchicine-tubulin binding Percent of control was measured for CCOc1ccc2[nH]cc(CCNc3nccc(Nc4ccc5c(c4)nc(C)n5C)n3)c2c1 [Example 1] tested on colchicine site on tubulin (porcine brain tubulin)?
95% of control

I'm curious: which Colchicine-tubulin binding Percent of control was measured for COc1ccc(/C=C\c2cc(OC)c(OC)c(OC)c2)cc1O [Combretastatin A4, combretastatin A4, reference compound] tested on colchicine site on tubulin (porcine brain tubulin)?
66% of control
